The origin of these recorded values is the supplement of paper PMC9112550.

tested on: Escherichia coli TOP10; experiment: shrunken log2 fold change of peptide-encoding DNA abundance (4.5 h post-induction vs induction); higher = less antimicrobial activity (less host growth inhibition); conditions: time post-induction: 4.5 h; library: site-saturation at positions 5, 18, 19, 20;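 further: peptides expressed intracellularly from a pBAD plasmid library in pooled LB shake-flask culture, induced with 0.3% L-arabinose, DNA abundance read by NGS, three biological replicates, DESeq2 with apeglm shrinkage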
RECORDED ENDPOINT: shrunken log2 fold change
Numbers only.

Solved entries (count: 5):
RRIRTRPPRLPRPRPRPMEEPRP; -0.25
RRIRERPPRLPRPRPRPNGNPRP; -0.104
RRIRMRPPRLPRPRPRPWKAPRP; 0.0518
RRIRPRPPRLPRPRPRPYYPPRP; -0.439
RRIRLRPPRLPRPRPRPQIAPRP; -0.0971

Provide shrunken log2 fold change values for the following items, in order.
1. RRIRNRPPRLPRPRPRPATRPRP
2. RRIRRRPPRLPRPRPRPYDIPRP
3. RRIRGRPPRLPRPRPRPNGGPRP

Response:
[0.322, -0.249, 0.0238]

Quick one: give me shrunken log2 fold change for each item below, same order please.
1. RRIRKRPPRLPRPRPRPVGQPRP
2. RRIRVRPPRLPRPRPRPNAQPRP

Response:
1: 0.0743; 2: 0.24
